Sourced from the supplement of paper PMC11196671

- MEASUREMENT NOTES: PET hydrolysis product formed (TPA+MHET+BHET, UV-Vis) per mg enzyme (mmol/mg enzyme); higher = more PET depolymerisation activity; extreme values may be limits of the assay
- MEASUREMENT SETUP: PET substrate: cryPow; 70 °C; pH 5.5; 24 h
What PET hydrolysis product formed was measured for each of the following?

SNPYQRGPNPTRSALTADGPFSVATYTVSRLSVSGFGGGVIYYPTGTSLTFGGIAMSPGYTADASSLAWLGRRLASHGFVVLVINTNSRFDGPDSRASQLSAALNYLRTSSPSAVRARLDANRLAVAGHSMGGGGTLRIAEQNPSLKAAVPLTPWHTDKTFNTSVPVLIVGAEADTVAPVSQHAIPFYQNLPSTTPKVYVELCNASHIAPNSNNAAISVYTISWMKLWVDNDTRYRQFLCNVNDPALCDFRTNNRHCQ [LCC-ICCG]    0.031
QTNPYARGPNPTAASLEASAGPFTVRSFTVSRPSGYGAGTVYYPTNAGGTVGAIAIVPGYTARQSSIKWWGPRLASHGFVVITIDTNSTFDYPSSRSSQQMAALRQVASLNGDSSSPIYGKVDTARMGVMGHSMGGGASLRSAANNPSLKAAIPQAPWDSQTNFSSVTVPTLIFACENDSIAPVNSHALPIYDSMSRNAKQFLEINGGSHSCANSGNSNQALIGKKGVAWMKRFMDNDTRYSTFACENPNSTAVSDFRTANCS [DuraPETase]    0
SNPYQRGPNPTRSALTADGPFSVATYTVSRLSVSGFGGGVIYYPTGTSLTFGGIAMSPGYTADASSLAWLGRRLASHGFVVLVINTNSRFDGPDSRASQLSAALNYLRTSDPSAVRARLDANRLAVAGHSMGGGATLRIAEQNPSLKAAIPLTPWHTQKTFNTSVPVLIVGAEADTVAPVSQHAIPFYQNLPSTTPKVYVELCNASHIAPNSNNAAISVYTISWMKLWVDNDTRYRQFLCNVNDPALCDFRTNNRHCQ [LCC-ICCG DAQI]    0.0244
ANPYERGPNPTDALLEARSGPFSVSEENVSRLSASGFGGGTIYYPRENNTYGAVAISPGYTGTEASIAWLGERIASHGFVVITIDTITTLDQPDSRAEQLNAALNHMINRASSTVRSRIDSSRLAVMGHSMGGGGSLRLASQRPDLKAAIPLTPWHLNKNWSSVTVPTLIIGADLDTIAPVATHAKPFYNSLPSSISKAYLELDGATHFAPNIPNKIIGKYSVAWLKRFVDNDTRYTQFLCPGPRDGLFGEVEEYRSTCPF [TfCut2]    0
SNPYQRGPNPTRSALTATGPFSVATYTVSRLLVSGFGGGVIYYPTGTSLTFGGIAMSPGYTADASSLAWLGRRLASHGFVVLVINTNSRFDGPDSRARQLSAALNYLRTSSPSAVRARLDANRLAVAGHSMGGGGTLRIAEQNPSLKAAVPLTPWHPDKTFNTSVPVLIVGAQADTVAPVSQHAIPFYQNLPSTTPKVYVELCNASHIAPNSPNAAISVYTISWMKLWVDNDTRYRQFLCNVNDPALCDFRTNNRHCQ [LCC-ICCG I6M]    0.0302
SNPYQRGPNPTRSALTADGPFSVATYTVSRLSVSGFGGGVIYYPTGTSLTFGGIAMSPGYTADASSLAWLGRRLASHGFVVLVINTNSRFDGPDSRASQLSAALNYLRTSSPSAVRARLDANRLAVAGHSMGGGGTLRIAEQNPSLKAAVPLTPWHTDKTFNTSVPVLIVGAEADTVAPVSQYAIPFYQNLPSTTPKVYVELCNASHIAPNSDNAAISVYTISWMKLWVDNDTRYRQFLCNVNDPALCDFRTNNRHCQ [LCC-A2]    0.0541

Now let's try a different one.
Query: Please give the measured PET hydrolysis product formed for this sequence: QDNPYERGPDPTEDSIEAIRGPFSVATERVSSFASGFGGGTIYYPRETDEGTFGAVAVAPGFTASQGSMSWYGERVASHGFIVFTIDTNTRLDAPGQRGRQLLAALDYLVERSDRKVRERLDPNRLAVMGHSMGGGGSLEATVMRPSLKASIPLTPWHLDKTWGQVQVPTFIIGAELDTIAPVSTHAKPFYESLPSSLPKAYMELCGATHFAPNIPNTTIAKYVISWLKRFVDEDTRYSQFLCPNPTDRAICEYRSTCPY [Cut190*SS]
Response: 0
